Test system: SF-295 CNS
Test: NCI tumour cell line growth inhibition, 48 h
measurement.name: TGI

Take a look at these entries with their results.
• N#Cc1cc(N(CCCl)CCCl)c([N+](=O)[O-])cc1[N+](=O)[O-] = > 100 µM
• CN(C)C1(N(C)C)Oc2c(c(=O)n(C)c(=O)n2C)C(c2ccccc2Br)C1(F)F (stereo not given) = > 100 µM
• CCOC1(OCC)N=C(N)C2(C#N)C3(C(=O)N(C(C)C)N=C3C)C12C#N (stereo not given) = > 100 µM

Looking up CC1=CC(=O)C(=CN2C(=O)/C(=C\c3cccnc3)NC2=S)C(=O)O1 , I see its TGI listed as > 100 µM

GET /value?item= Cc1coc2c1C(=O)C(=O)c1c-2ccc2c1CCCC2(C)C &field=TGI returns 8.49 µM

====

Tested on: UACC-62 melanoma
Test: NCI tumour cell line growth inhibition, 48 h
Parameter GI50: see the listing below.

Study these solved cases before continuing.
• Cc1cc(C)c2nc3nc(C)cc(C)c3c(N)c2c1 = 4.83 µM
• O=C(NCCNc1nccc(-c2c(-c3ccc(F)cc3)nc3sccn23)n1)c1ccccc1 = 4.87 µM

# next compound below
The compound listed as CCOC(=O)c1c(Cl)c2c(n1Cc1cccc(OC)c1)-c1oncc1CC2 has a reported GI50 of 0.608 µM

====

Test system: TK-10 renal
Assay: NCI tumour cell line growth inhibition, 48 h
Quick list: TGI per entry.
Use µM as the unit, but write only the number.

* CN(C)C1=NC2=S(SC(Nc3ccccc3)=N2)S1 (stereo not given) | 85.5

Please examine the following record next.
Record Clc1ccc(C2=C(c3ccccc3)C(c3ccc(Cl)cc3)N3C(=N[C@H]4CCCC[C@@H]43)N2)cc1 (stereo not given in full) , field TGI: 22.3

====

Test system: BT-549 breast
Assay: NCI tumour cell line growth inhibition, 48 h
Parameter TGI: see the listing below.

See these solved cases before continuing.
- COc1cc([C@@H]2c3cc4c(cc3[C@@H](OC3OC5COC(C)OC5C(OC(=O)CN5CCN(C)CC5)C3OC(=O)CN3CCN(C)CC3)C3COC(=O)[C@@H]32)OCO4)cc(OC)c1OC(=O)CN1CCN(C)CC1 (some centres undefined): > 100 µM
- CC(C(=O)O)/C(=C\c1ccc2c(c1)OCO2)C(=O)O (centres undefined): > 100 µM
- CC(CO)(CBr)COC(=O)c1cc(Br)c(N)c(Br)c1 (centres undefined): > 100 µM
- COc1cc(C2CC(c3ccccc3)=NN2C(C)=O)cc(OC)c1OC (centres undefined): > 100 µM
- Cn1ccnc1C(=O)/C=C/c1ccc(CC(=O)Nc2ccc(F)cc2)cc1: 6.01 µM

The molecule listed as N#Cc1cc(N(CCCl)CCCl)c([N+](=O)[O-])cc1[N+](=O)[O-] shows TGI equal to > 100 µM

So, Cc1sc(NC2=NC(=O)/C(=C\c3ccccc3)S2)nc1-c1nc(NC2=NC(=O)/C(=C\c3ccccc3)S2)sc1C ? Its TGI was > 50 µM

Memo: O=C1C2=Cc3ccccc3OC2(O)Oc2ccc(O)cc21 (centres undefined) , reported TGI: > 100 µM

TGI reported for this molecule Cc1cc(O)c(C=NC(=S)c2ccccc2)c(=O)o1 : > 100 µM

====

System: OVCAR-5 ovarian
Test: NCI tumour cell line growth inhibition, 48 h
measurement.name: GI50

Solved cases below.
* COc1cc(/C=C2\C(=O)N(c3ccccc3)c3ccccc32)cc(OC)c1OC | 14.1 µM
* O=C1CC[C@H](c2ccc(O)c3c2C(=O)[C@@H]2O[C@@H]2C3=O)c2cccc(O)c21 | 4.55 µM

// next item, GI50 requested
Param item: N=c1n(Cc2ccccc2)c(N)cc(=O)n1Cc1ccccc1 ; param system: OVCAR-5 ovarian; output GI50: 4.27 µM

====

System: SF-268 CNS
Experiment: NCI tumour cell line growth inhibition, 48 h
Listed next: entries and their corresponding TGI.

Known results for compounds:
* CCN(CC)CCCC(Cc1ccccc1)Nc1c2ccc(Cl)cc2nc2ccc(OC)cc12 (stereo not given) | 5.84 µM
* COc1ccc(CCN2CCC(Nc3nc4ccccc4n3Cc3ccc(F)cc3)CC2)cc1 | 2.95 µM
* CC(=O)N1CC(=O)NC1=S | > 100 µM
* C(=NCCCN1CCN(CCCN=Cc2cccc3ccccc23)CC1)c1cccc2ccccc12 | > 100 µM

# TGI measured on SF-268 CNS for item Cc1c(NC(=O)c2cc([N+](=O)[O-])cc([N+](=O)[O-])c2)c(=O)n(-c2ccccc2)n1C = > 100 µM

The measured TGI that N=c1n(Cc2ccccc2)c(N)cc(=O)n1Cc1ccccc1 showed for SF-268 CNS is 3.86 µM

Form field TGI for item C[C@H](N[C@H]1CCC[C@]1(O)C#Cc1ccc2c(c1)OCO2)c1ccccc1 on SF-268 CNS: > 25 µM

====

Test system: CAKI-1 renal
Experiment: NCI tumour cell line growth inhibition, 48 h
measurement.name: TGI

Reference set (3 entries):
• CN(C)C1=NC2=S(SC(Nc3ccccc3)=N2)S1 (configuration not stated) = 60.7 µM
• CCCNC(=O)Cn1c(C)cc2ccccc21 = > 100 µM
• O=Nc1sc(=N\O)/c(=N/O)sc1NO = > 100 µM

Kindly note the recorded TGI for COc1cccc(Cn2c(-c3nonc3NC(C)=O)nc3ccccc32)c1 , which is > 100 µM

# TGI (compound: CCC(CCN)(CCN)[N+](=O)[O-] ) is > 100 µM

In plain terms, CC1(C)CCCCCCC2CC2CCCCCC(C)(C)C1=O (configuration not stated) has a documented TGI of > 100 µM

Record COc1cc(/C=C2\C(=O)N(c3ccccc3)c3ccccc32)cc(OC)c1OC . Reported TGI: 61.3 µM

====

Tested on: SF-268 CNS
Test: NCI tumour cell line growth inhibition, 48 h; in the data active means GI50 below about 0.43 µM; inactive means the rest
Bench note: report the call from 1 for active, -1 for inactive

These solved cases illustrate the format of a correct answer.
- CC(C)n1c(=O)n(C)c2cnc3cc(F)c(-c4ccc(OCCCN5CCCCC5)nc4)cc3c21: -1
- COc1cccc(Cn2c(-c3nonc3NC(C)=O)nc3ccccc32)c1: -1
- O=C1/C(=C/c2ccccc2F)CN(C(=O)C(Cl)Cl)C/C1=C\c1ccccc1F: -1

Q: What classification did COc1nc(N)nc2c1ncn2[C@@H]1O[C@H](CO)[C@@H](O)[C@@H]1O end up with in this test?
Ans: -1

Q: For CCn1c(-c2nonc2N)nc2cncc(C(=O)NCCNC)c21 , what call appears in the results of this test?
Ans: -1

====

Test system: TK-10 renal
Assay: NCI tumour cell line growth inhibition, 48 h
Reported values of TGI for individual entries
# value in µM; strip the unit string

- CC(C)NC(=O)OCc1c(COC(=O)NC(C)C)c(-c2ccc(Cl)c(Cl)c2)n2c1CCC2: 88.2

Here is another compound to look at.
Per the records, this compound ( CN(C)C(=S)N/N=C(\C(=N/NC(=S)N(C)C)c1ccccn1)c1ccccn1 ) has TGI equal to 22.2

====

Tested on: UO-31 renal
Assay: NCI tumour cell line growth inhibition, 48 h
measurement.name: TGI (µM)
Write down the numeric answer in µM and omit the unit.

For orientation, consider the following solved cases.
• CC(=O)OC1CC2C(C)(C)C(=O)C=C[C@]2(C)C2CCC3(C)C(c4ccoc4)[C@@H](O)[C@H]4O[C@]43[C@]12C (stereo not given in full) = 31.8
• N#C/C(=C1C=C/C(=N\O)C(Cl)=C\1)c1ccccc1 = 17.1

Then this molecule:
Entry CC1OC(n2c3ccccc3c3c4c(c5c6ccccc6[nH]c5c32)C(=O)N(CCN2CCOCC2)C4=O)CC(O)C1O (stereo not given) under UO-31 renal had TGI of 10.8

====

Tested on: COLO 205 colon
Assay: NCI tumour cell line growth inhibition, 48 h
# key: entry, value: TGI

Some solved cases for reference:
• CS/C(=N\S(=O)(=O)c1cc(C)c(Cl)cc1Cl)NNc1cnc2ccccc2n1 = > 100 µM
• CC(=O)OC1Oc2cc(C)c(C)cc2-c2oc(=O)c(-c3ccc(F)cc3)cc21 (stereo unspecified) = 26.1 µM
• O=C1N=NC(=O)N1c1cc(C(F)(F)F)cc(C(F)(F)F)c1 = 3.35 µM
• COc1ccc2oc(=O)c(-c3nc4ccccc4o3)cc2c1 = > 100 µM
• CC(C(=O)O)/C(=C\c1ccc2c(c1)OCO2)C(=O)O (stereo unspecified) = > 100 µM
• Cc1cc2cc3cc(C)c(N)cc3[n+](C)c2cc1N = 2.87 µM

Sure, the documented TGI for O=S(=O)(CCNCc1ccc(-c2ccc3ncnc(Nc4ccc(OCc5cccc(F)c5)c(Cl)c4)c3c2)o1)c1ccccc1 is > 25 µM

Entry N#Cc1cc(N(CCCl)CCCl)c([N+](=O)[O-])cc1[N+](=O)[O-] ; TGI = > 100 µM

Query C[C@H](N[C@H]1CCC[C@]1(O)C#Cc1ccc2c(c1)OCO2)c1ccccc1 yields TGI of > 25 µM

Lookup result for NC(=O)Nc1ccc(C(=O)NCCCNC(=O)c2ccc(NC(N)=O)cc2)cc1 ; measured TGI: > 100 µM

The molecule listed as CN(C)CCNC1=CC(=O)c2nc3ccccc3c3ccnc1c23 shows TGI equal to 9.21 µM

Short answer for CN(C)C1(N(C)C)Oc2c(c(=O)n(C)c(=O)n2C)C(c2ccccc2Br)C1(F)F (stereo unspecified) : TGI was > 100 µM

Form: molecule = O=C(NCCNc1nccc(-c2c(-c3ccc(F)cc3)nc3sccn23)n1)c1ccccc1 ; TGI = 14.6 µM

Record CS(=O)(=O)c1ccc(Oc2cc(F)cc(C#N)c2)c2c1[C@H](O)C(F)(F)C2 . Reported TGI: > 100 µM

The recorded TGI for N#C/C(=C1C=C/C(=N\O)C(Cl)=C\1)c1ccccc1 is 24.4 µM

Lab note: O=Nc1sc(=N\O)/c(=N/O)sc1NO gave TGI of > 100 µM

TGI measured on C=C(C)[C@H]1C[C@@H]2O[C@@](O)(/C(C)=C\C(=O)/C=C(/C)C[C@H]3OC(=O)[C@@]24O[C@H]34)[C@@H]1O = > 100 µM

Record Cc1cc(=O)oc2c(OS(C)(=O)=O)c(OS(C)(=O)=O)ccc12 . Reported TGI: > 100 µM

Consider CC(=O)C1=C(C)N2C(=NC3=C(CCc4ccccc43)C2c2cccc(Br)c2)S1 (stereo unspecified) . Its measured TGI is > 100 µM

For record O=C1C(c2c(O)[nH]c3ccccc23)=Nc2ccc(Br)cc21 the listed TGI is > 100 µM

The recorded TGI for COCCN(CCOC)C(=O)COc1c2cc(C(C)(C)C)cc1Cc1cc(C(C)(C)C)cc(c1OCC(=O)N(CCOC)CCOC)Cc1cc(C(C)(C)C)cc(c1OCC(=O)N(CCOC)CCOC)Cc1cc(C(C)(C)C)cc(c1OCC(=O)N(CCOC)CCOC)Cc1cc(C(C)(C)C)cc(c1OCC(=O)N(CCOC)CCOC)C2 is 1.96 µM

These measurements were taken from PubChem BioAssay (NCI).
